Quick reference: binding signal of the listed items.
# tested target: dAsCas12a S542R (Acidaminococcus sp., UniProt U2UMQ6 1-1307, S542R;D908A;E993A;D1235A)
# procedure details: Spec-seq (native PAGE EMSA with sequencing of bound and unbound); 25 mM Tris-HCl pH 7.4, 150 mM KCl, 5 mM MgCl2, 10% glycerol, 1 mM DTT, 40 ng/uL salmon sperm DNA; 400 nM Cas12a, 480 nM crRNA, 50 nM library, 37 C 1 h; native PAGE at room temperature; high values mean tight binding;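 further: relative affinity from the bound to unbound sequence frequency ratio in Spec-seq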
# run conditions: protein: recombinant
Reply numerically in lnKA, unit not repeated.

// worked examples, binding signal included
binder	readout number
CAAG (dsDNA) DNA 1: GCTATCTAGTGCTCAGTACGCACTGCAAGAGGAAACTTCTGGCAGGACCAGGTCATGAGATCGGAAGAGCACACGTCTGAACTCCAGTCA DNA 2: TGACTGGAGTTCAGACGTGTGCTCTTCCGATCTCATGACCTGGTCCTGCCAGAAGTTTCCTCTTGCAGTGCGTACTGAGCACTAGATAGC RNA: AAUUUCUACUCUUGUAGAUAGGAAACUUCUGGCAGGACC	-8.58
CTCC (dsDNA) DNA 1: GCTATCTAGTGCTCAGTACGCACTGCTCCAGGAAACTTCTGGCAGGACCAGGTCATGAGATCGGAAGAGCACACGTCTGAACTCCAGTCA DNA 2: TGACTGGAGTTCAGACGTGTGCTCTTCCGATCTCATGACCTGGTCCTGCCAGAAGTTTCCTGGAGCAGTGCGTACTGAGCACTAGATAGC RNA: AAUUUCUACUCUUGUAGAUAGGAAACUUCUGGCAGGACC	-4.85
AGCG (dsDNA) DNA 1: GCTATCTAGTGCTCAGTACGCACTGAGCGAGGAAACTTCTGGCAGGACCAGGTCATGAGATCGGAAGAGCACACGTCTGAACTCCAGTCA DNA 2: TGACTGGAGTTCAGACGTGTGCTCTTCCGATCTCATGACCTGGTCCTGCCAGAAGTTTCCTCGCTCAGTGCGTACTGAGCACTAGATAGC RNA: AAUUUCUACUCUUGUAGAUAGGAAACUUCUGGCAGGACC	-8.91
AATT (dsDNA) DNA 1: GCTATCTAGTGCTCAGTACGCACTGAATTAGGAAACTTCTGGCAGGACCAGGTCATGAGATCGGAAGAGCACACGTCTGAACTCCAGTCA DNA 2: TGACTGGAGTTCAGACGTGTGCTCTTCCGATCTCATGACCTGGTCCTGCCAGAAGTTTCCTAATTCAGTGCGTACTGAGCACTAGATAGC RNA: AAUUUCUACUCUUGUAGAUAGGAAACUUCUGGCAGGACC	-8.01

Switching to the query record.
input: I would be grateful if you could share the reported binding signal for GCTC (dsDNA) DNA 1: GCTATCTAGTGCTCAGTACGCACTGGCTCAGGAAACTTCTGGCAGGACCAGGTCATGAGATCGGAAGAGCACACGTCTGAACTCCAGTCA DNA 2: TGACTGGAGTTCAGACGTGTGCTCTTCCGATCTCATGACCTGGTCCTGCCAGAAGTTTCCTGAGCCAGTGCGTACTGAGCACTAGATAGC RNA: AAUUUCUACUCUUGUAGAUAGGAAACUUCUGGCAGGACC .
output: -7.23
